- assayed system: Adenosine receptor A1 (Bos taurus)
- Sequence (P28190 whole entry): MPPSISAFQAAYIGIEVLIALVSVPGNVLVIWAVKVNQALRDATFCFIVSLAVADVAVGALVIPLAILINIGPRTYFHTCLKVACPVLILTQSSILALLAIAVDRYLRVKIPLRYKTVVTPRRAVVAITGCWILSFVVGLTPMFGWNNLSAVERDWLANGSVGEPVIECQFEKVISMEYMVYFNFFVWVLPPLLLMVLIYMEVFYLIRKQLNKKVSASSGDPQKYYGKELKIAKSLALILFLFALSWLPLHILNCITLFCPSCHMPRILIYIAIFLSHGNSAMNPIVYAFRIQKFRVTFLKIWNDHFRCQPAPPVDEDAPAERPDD
measured endpoint: Ki (µM)

>>> df
                                   molecule                      assayed_system  units_text  numeric_result
0  O=C1CC(c2ccccc2)Cc2[nH]c(=O)c(C(=O)c3ccccc3)cc21 (configuration not stated)  Adenosine receptor A1 (Bos taurus)          µM             6.5
1  CC(C)(C)C(=O)c1cc2c([nH]c1=O)CC(c1ccccc1)CC2=O (configuration not stated)  Adenosine receptor A1 (Bos taurus)          µM             5.1

---

- System: cAMP phosphodiesterase 3 (Cavia porcellus)
- assay details: Inhibition of Cavia porcellus (guinea pig) PDE3 isolated from heart using [3H]cAMP as substrate at 100 uM by two-step method
measured endpoint: inhibition (%)

Consider the following illustrative entries.
In [3]: df
Out[3]:
                                   molecule  measured_endpoint  numeric_result
0  CC(=O)c1cc(S(=O)(=O)c2ccccc2)c(=O)[nH]c1C         inhibition            8.72
1  O=C(c1ccccc1)c1cc(S(=O)(=O)c2ccccc2)c(=O)[nH]c1-c1ccccc1         inhibition            7.53
2    O=C1CCCc2[nH]c(=O)c(C(=O)c3ccccc3)cc21         inhibition               6
3      CC(C)(C)C(=O)c1cc2c([nH]c1=O)CCCC2=O         inhibition             6.6
4     CC(=O)c1cc(C(=O)C(C)(C)C)c(=O)[nH]c1C         inhibition            8.23
5  O=C1CC(c2ccccc2)Cc2[nH]c(=O)c(C(=O)c3ccccc3)cc21 (stereo unspecified)         inhibition             7.8

[P] O=C(c1ccccc1)c1cc(C(=O)c2ccccc2)c(=O)[nH]c1-c1ccccc1
[Q] CC(C)(C)C(=O)c1cc2c([nH]c1=O)CC(c1ccccc1)CC2=O (stereo unspecified)
Enquiry: Rank P against Q by their inhibition values and give the higher one. Your choice should be expressed through its label.
Return: P
(P: 9.6%, Q: 4.2%)

[A] CC(=O)c1cc(C(=O)c2ccccc2)c(=O)[nH]c1C
[B] O=C1CCCc2[nH]c(=O)c(S(=O)(=O)c3ccccc3)cc21
Enquiry: // compare measured inhibition between A and B ; output the lower one Your choice should be expressed through its label.
Return: B
(B: 5.7%, A: 8.9%)

---

- System: cAMP phosphodiesterase 3 (Cavia porcellus)
- assay details: Inhibition of Cavia porcellus (guinea pig) PDE3 isolated from heart using [3H]cAMP as substrate at 10 uM by two-step method
measured endpoint: inhibition (%)

                                   molecule  units_text  numeric_result
0  O=C1CCCc2[nH]c(=O)c(S(=O)(=O)c3ccccc3)cc21           %               0
1  CC(=O)c1cc(S(=O)(=O)c2ccccc2)c(=O)[nH]c1C           %            1.03
2      CC(C)(C)C(=O)c1cc2c([nH]c1=O)CCCC2=O           %             2.5

[P] CC(=O)c1cc(C(=O)c2ccccc2)c(=O)[nH]c1C
[Q] CC(C)(C)C(=O)c1cc2c([nH]c1=O)CC(c1ccccc1)CC2=O (stereo unspecified)
[R] O=C1CCCc2[nH]c(=O)c(C(=O)c3ccccc3)cc21
Enquiry: Output the entries ranked by inhibition from maximum down to minimum. Answer by naming the labels in the order asked.
Return: P, Q, R
(P: 2%, Q: 0.8%, R: 0%)
